system: UO-31 renal; test: NCI-60 one-dose screen, 48 h (100 = growth as untreated, 0 = no growth, -100 = all killed); conditions: 10 µM unless noted
Compounds without any hit were thinned out: in the full panel of roughly 83,000, 20% have a hit.
Response field class: string, computed from recorded growth by ranges L (below 40%), M (40% to below 70%), H (70% or more)

Prompt: Consider COc1cccc(NC(=O)c2sc3nc(C)c(C(C)=O)cc3c2N)c1 . To which growth class does it belong?
Completion: H

Prompt: Consider CSc1nc(NCc2ccccc2)c(C#N)c(-c2cccc([N+](=O)[O-])c2)n1 . To which growth class does it belong?
Completion: H

Prompt: Consider Cc1cc2c3ccccc3ccc2[n+]2ccccc12 . To which growth class does it belong?
Completion: M

Prompt: Consider CCc1nc(N)nc(N)c1C#CC(C)c1cc(-c2ccnc(C)c2)c2oc(C)nc2c1 (configuration not stated) . To which growth class does it belong?
Completion: L

Prompt: Consider Cc1cc(N2CCN(c3ccnc4cc(Cl)ccc34)CC2)nc(N2CCOCC2)n1 . To which growth class does it belong?
Completion: M

Prompt: Consider COc1cccc(Nc2nc(SC)nc(-c3cccc([N+](=O)[O-])c3)c2C#N)c1 . To which growth class does it belong?
Completion: L

Prompt: Consider O=C(COc1ccc(/C=C2\COc3ccccc3C2=O)cc1)Nc1nccs1 . To which growth class does it belong?
Completion: H

Prompt: Consider COc1cccc(-c2nc3sccn3c2-c2ccnc(NCCCNS(=O)(=O)c3cccc(Cl)c3)c2)c1 . To which growth class does it belong?
Completion: L

Prompt: Consider C#CC(F)(F)[C@]1(O)CC[C@H]2[C@@H]3CCC4=CC(=O)CCC4=C3[C@@H](c3ccc(C(C)=O)cc3)C[C@@]21C . To which growth class does it belong?
Completion: L

Prompt: Consider CC1=C[C@H]2c3c(c(O)c(O)c4oc5c(C)cccc5c(=O)c34)[C@H](c3cc(O)c(O)c4oc5c(C)cccc5c(=O)c34)[C@H]2C(C)(C)C1 . To which growth class does it belong?
Completion: L

Prompt: Consider C=C(C)[C@@H]1CC[C@]2(C(=O)OC)CC[C@]3(C)[C@H](CC[C@@H]4[C@@]5(C)C/C(=C/c6ccc(OC)cc6)C(=O)C(C)(C)[C@@H]5CC[C@]43C)[C@@H]12 . To which growth class does it belong?
Completion: H

Prompt: Consider CCn1c(Cc2ccccc2Nc2c(Cl)cccc2Cl)nnc1SCC(=O)NN1C(=O)/C(=C/c2cc(OC)c(O)c(OC)c2)SC1=S . To which growth class does it belong?
Completion: M

Prompt: Consider CC[C@@H]1O[C@H](O[C@@H](c2cnc[nH]2)[C@H](NC(=O)c2nc([C@H](CC(N)=O)NC[C@@H](N)C(N)=O)nc(N)c2C)C(=O)N[C@H](C)[C@H](O)[C@H](C)C(=O)N[C@@H](C(=O)NCCc2nc(-c3nc(C(=O)NCCCCN=C(N)N)cs3)cs2)[C@@H](C)O)[C@H](O[C@@H]2O[C@H](CO)[C@H](O)[C@H](OC(N)=O)[C@@H]2O)[C@H](C)[C@@H]1C . To which growth class does it belong?
Completion: L

Prompt: Consider COc1cc(C=Nc2oc(-c3ccccc3)c(-c3ccccc3)c2C#N)cc(CN2CCCCC2)c1O . To which growth class does it belong?
Completion: H

Prompt: Consider CC(=O)OCCC/C(=C/c1cc2ccccc2c2ccccc12)[N+](=O)[O-] . To which growth class does it belong?
Completion: L

Prompt: Consider CCc1nc(N)nc(N)c1C#CC(C)c1ccc(-c2ccncc2)cc1Cl (configuration not stated) . To which growth class does it belong?
Completion: L

Prompt: Consider CC1=C[C@H]2c3c(c(O)c(O)c4oc5cc(O)ccc5c(=O)c34)[C@H](c3cc(O)c(O)c4oc5cc(O)ccc5c(=O)c34)[C@H]2C(C)(C)C1 . To which growth class does it belong?
Completion: M

Prompt: Consider Cc1ccc(NC(=O)C2CCC(CN3CCN(C)CC3)CC2)cc1Nc1nccc(-c2cccnc2)n1 (configuration not stated) . To which growth class does it belong?
Completion: H

Prompt: Consider CCCSc1ccc2nc(NC(=O)OC)[nH]c2c1 . To which growth class does it belong?
Completion: M

Prompt: Consider O=C(COc1cccc(/C=C2\COc3ccccc3C2=O)c1)Nc1nccs1 . To which growth class does it belong?
Completion: M

Prompt: Consider CSc1nc(-c2cccc(NC(=O)CCl)c2)c(C#N)c(=O)n1C . To which growth class does it belong?
Completion: L

Prompt: Consider CCOC(=O)c1sc(Nc2ccc(Cl)cc2)nc1C . To which growth class does it belong?
Completion: L

Prompt: Consider Cc1ccc(/C=C2\SC(=S)N(CC(=O)NCCCN3CCOCC3)C2=O)cc1 . To which growth class does it belong?
Completion: H

Prompt: Consider CSc1ccc(SC2c3ccc(C)cc3Oc3nc(N)c(C#N)c(N)c32)cc1 (configuration not stated) . To which growth class does it belong?
Completion: L

Prompt: Consider COc1ccc(C(=O)c2sc3nc4c(c(-c5cccnc5)c3c2N)CCCC4)cc1OC . To which growth class does it belong?
Completion: M

Prompt: Consider O=C1NC(=O)C(c2ccc(Cl)cc2Cl)N1 (configuration not stated) . To which growth class does it belong?
Completion: H

Prompt: Consider O=C1Nc2c(ccc(Cl)c2Cl)/C1=C\c1ccc(C(F)(F)F)cc1 . To which growth class does it belong?
Completion: M

Prompt: Consider Cn1cc(-c2nonc2-c2c[nH]c3ccc(F)cc23)c2cccnc21 . To which growth class does it belong?
Completion: M

Prompt: Consider COc1ccc(-n2nc(C)c3c(Oc4ccc(NC(=O)Nc5c(Cl)cccc5Cl)cc4)ncnc32)cc1 . To which growth class does it belong?
Completion: H

Prompt: Consider C=C(C)C(=O)Nc1ccc(NC(C)C)cc1 . To which growth class does it belong?
Completion: H

Prompt: Consider O=C(/C=C/c1ccccc1)c1ccc(O)c(CN2CCN(c3cc4c(cc3F)c(=O)c(C(=O)O)cn4C3CC3)CC2)c1 . To which growth class does it belong?
Completion: L

Prompt: Consider Cn1cccc1-c1nc2c3c(ccc2[nH]1)C(=O)c1ccccc1C3=O . To which growth class does it belong?
Completion: M

Prompt: Consider Cc1nc2c3c(-c4ccccc4)c(-c4ccccc4)oc3ncn2n1 . To which growth class does it belong?
Completion: H

Prompt: Consider NC(=NCCCC1(c2ccccc2)CCCC1)Nc1ccc(Cl)cc1 . To which growth class does it belong?
Completion: M
